method.summary: Pharmacokinetic (PK) study, IV and oral route, in mice
test.conditions: mouse, in vivo, oral 2 mg/ml formulation vs IV 1 mg/ml formulation
test.readout: bioavailability

(Q) Value lookup for bioavailability; key = Cc1cc(C(C)N(CCN)c2ccccc2)c2nc(N3CCOCC3)cc(=O)n2c1 (stereo not shown)
(A) ~6.4%
